# target: human Claudin 18.2 (CLDN18.2) (human, UniProt P56856-2 1-261)
# test.details: cell-based or functional assay
assay.readout: % specific cytotoxicity @ 6.67 nM, NUGC4-CLDN18.2, PBMC (%)

binder="413H9F8-H2L2 (antibody, V domains shown, humanized IgG; constant regions not specified) VH: EVQLVESGGGLVQPGGSLRLSCAASGFTFSSFGMHWVRQAPGKGLEWVAYISSGSSPIYYVDKLKGRFTISRDNAKNSLYLQMNSLRAEDTAVYYCARAGYAVRNALDYWGQGTLVTVSS VL: DIVMTQSPDSLAVSLGERATINCKSSQSLLNVGNQKNYLAWYQQKPGQPPKLLIYGASTRESGVPDRFSGSGSGTDFTLTISSLQAEDVAVYFCQNDLFYPLTFGGGTKVEIK" test_result=33.2
binder="413H9F8-cp3 (antibody, V domains shown, humanized IgG; constant regions not specified) VH: DVQLVESGGGLVQPGGSLRLSCAASGFTFSSFGMHWVRQAPGKGLEWVAYISSGSSPIYYVDKLKGRFTVSRDNAKNSLYLQMNSLRAEDTAVYYCARAGYAVRNALDYWGQGTLVTVSS VL: EIVMTQSPPTLSLSPGERVTLSCKSSQSLLNVGNQKNYLAWYQQKPGQAPRLLIYGASTRESGIPARFSGSGSGTDFTLTISSLQPEDFAVYYCQNDLFYPLTFGGGTKVEIK" test_result=30.5
binder="364D1A7-H1L1 (antibody, V domains shown, humanized IgG; constant regions not specified) VH: EVQLVESGGGLVQPGGSLRLSCAASGFTFSSFGMHWVRQAPGKGLEWVSYISSGSGSIYYADTVKGRFTISRDNAKNSLYLQMNSLRAEDTAVYYCATSYYYGNALEYWGQGTTVTVSS VL: DIVMTQSPDSLAVSLGERATINCKSSQSLFNVGNQKNYLTWYQQKPGQPPKLLIYWASTRKSGVPDRFSGSGSGTDFTLTISSLQAEDVAVYYCQNVYSYPLTFGGGTKVEIK" test_result=26.7
binder="413H9F8-cp7 (antibody, V domains shown, humanized IgG; constant regions not specified) VH: EVQLVESGGGLVQPGGSLRLSCAASGFTFSSFGMHWVRQAPGKGLEWVSYISSGSSPIYYVDKLKGRFTISRDNAKNSLYLQMNSLRAEDTAVYYCARAGYAVRNALDYWGQGTLVTVSS VL: DIVMTQSPPTLSLSPGERVTLSCKSSQSLLNVGNQKNYLAWYQQKPGQAPKLLIYGASTRESGIPDRFSGSGSGTDFTLTISSLQPEDFAVYYCQNDLFYPLTFGGGTKVEIK" test_result=29.7
binder="413H9F8-cp5 (antibody, V domains shown, humanized IgG; constant regions not specified) VH: DVQLVESGGGLVQPGGSLRLSCAASGFTFSSFGMHWVRQAPGKGLEWVAYISSGSSPIYYVDKLKGRFTISRDNAKNSLYLQMNSLRAEDTAVYYCARAGYAVRNALDYWGQGTLVTVSS VL: DIVMTQSPPTLSLSPGERVTLSCKSSQSLLNVGNQKNYLAWYQQKPGQAPRLLIYGASTRESGIPDRFSGSGSGTDFTLTISSLQPEDFAVYYCQNDLFYPLTFGGGTKVEIK" test_result=29.6
binder="364D1A7-H1L5 (antibody, V domains shown, humanized IgG; constant regions not specified) VH: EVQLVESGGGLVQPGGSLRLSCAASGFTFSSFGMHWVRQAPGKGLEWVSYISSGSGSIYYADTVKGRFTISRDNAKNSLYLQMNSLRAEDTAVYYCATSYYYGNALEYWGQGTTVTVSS VL: DVVLTQSPDSLAVSLGERATISCKSSQSLFNVGNQKNYLTWYQQKPGQTPTLLIYWASTRKSGVPDRFTGSGSGTDFTLTISSLQAEDVAVYYCQNVYSYPLTFGAGTKVEIK" test_result=27.5
binder="364D1A7-H2L2 (antibody, V domains shown, humanized IgG; constant regions not specified) VH: EVQLVESGGGLVQPGGSLRLSCAASGFTFSSFGMHWVRQAPGKGLEWVAYISSGSGSIYYADTVKGRFTISRDNPKNSLYLQMNSLRAEDTAVYYCATSYYYGNALEYWGQGTTVTVSS VL: DIVLTQSPDSLAVSLGERATINCKSSQSLFNVGNQKNYLTWYQQKPGQTPKLLIYWASTRKSGVPDRFSGSGSGTDFTLTISSLQAEDVAVYYCQNVYSYPLTFGGGTKVEIK" test_result=26.6
binder="413H9F8-H4L3 (antibody, V domains shown, humanized IgG; constant regions not specified) VH: EVQLVESGGGLVQPGGSLRLSCAASGFTFSSFGMHWVRQAPGKGLEWVAYISSGSSPIYYVDKLKGRFTVSRDNAKNSLYLQMTSLRAEDTAVYYCARAGYAVRNALDYWGQGTLVTVSS VL: DIVMTQSPDSLAVSLGERATINCKSSQSLLNVGNQKNYLAWYQQKPGQPPKLLIYGASTRESGVPDRFIGSGSGTDFTLTISSLQAEDVAVYFCQNDLFYPLTFGGGTKVEIK" test_result=27.8
binder="413H9F8-H3L4 (antibody, V domains shown, humanized IgG; constant regions not specified) VH: EVQLVESGGGLVQPGGSLRLSCAASGFTFSSFGMHWVRQAPGKGLEWVAYISSGSSPIYYVDKLKGRFTVSRDNAKNSLYLQMNSLRAEDTAVYYCARAGYAVRNALDYWGQGTLVTVSS VL: DIVMTQSPDSLAVSLGERATISCKSSQSLLNVGNQKNYLAWYQQKPGQPPKLLIYGASTRESGVPDRFIGSGSGTDFTLTISSLQAEDVAVYFCQNDLFYPLTFGAGTKVEIK" test_result=28.7
binder="413H9F8-H1L1 (antibody, V domains shown, humanized IgG; constant regions not specified) VH: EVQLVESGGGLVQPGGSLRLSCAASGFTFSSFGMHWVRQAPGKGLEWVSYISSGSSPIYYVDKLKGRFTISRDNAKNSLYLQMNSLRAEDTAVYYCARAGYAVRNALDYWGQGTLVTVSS VL: DIVMTQSPDSLAVSLGERATINCKSSQSLLNVGNQKNYLAWYQQKPGQPPKLLIYGASTRESGVPDRFSGSGSGTDFTLTISSLQAEDVAVYYCQNDLFYPLTFGGGTKVEIK" test_result=27
